B1: S100A14 (parent)
chain: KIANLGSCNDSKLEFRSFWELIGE

- Variants of: B1
- Measurement Description: protein stability index of a GFP-peptide fusion (GPS, HEK-293T) (PSI 1-6); higher = more stable;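 further: lentivirally expressed fusions sorted by FACS into six bins by GFP to DsRed ratio, PSI derived from sequencing read proportions per bin multiplied by bin number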
- Condition Info: c terminus: a fixed tail appended
// values below are reported protein stability index
Property: protein stability index

{"Mutation": "W19S", "Val": 1.87}
{"Mutation": "K1W", "Val": 3.31}
{"Mutation": "F18N", "Val": 2.73}
{"Mutation": "A3V", "Val": 2.78}
{"Mutation": "G23N", "Val": 2.21}
{"Mutation": "S17T", "Val": 2.75}
{"Mutation": "K1E", "Val": 1.84}
{"Mutation": "E14Q", "Val": 2.06}
{"Mutation": "S7A", "Val": 1.51}
{"Mutation": "F18P", "Val": 2.27}
{"Mutation": "D10A", "Val": 1.66}
{"Mutation": "N9A", "Val": 2.06}
{"Mutation": "L21V", "Val": 1.63}
{"Mutation": "S11A", "Val": 2.38}
{"Mutation": "R16L", "Val": 3.03}
{"Mutation": "A3Q", "Val": 1.98}
{"Mutation": "S17Y", "Val": 1.84}
{"Mutation": "I22S", "Val": 2.28}
{"Mutation": "I2L", "Val": 1.8}
{"Mutation": "I2R", "Val": 2.13}
